assay: compounds altering Cy5-DNA-NS3h complex signal – biochemical, LOPAC1280, artefact control for HCV NS3 helicase inhibitor project (AID 687037); details: Cy5-DNA-NS3h complex fluorescence interference counterscreen
Exercise: for every item that follows, state its recorded fluorescence ratio (interference).
Form field (numeric): enter value without unit.

Prompt: Given the compound `COc1ccccc1N1CCN(CCCCNC(=O)c2ccc3ccccc3c2)CC1` , write its reported fluorescence ratio (interference).
Completion: 1

Prompt: Given the compound `O=[N+]([O-])c1ccc2c(c1)S(=O)(=O)C=C2` , write its reported fluorescence ratio (interference).
Completion: 1

Prompt: Given the compound CCOC(=O)C12CC1/C(=N\O)c1ccccc1O2 (configuration not stated) , write its reported fluorescence ratio (interference).
Completion: 1

Prompt: Given the compound `O=C1NC(O)=NC1(c1ccccc1)c1ccccc1` , write its reported fluorescence ratio (interference).
Completion: 1.1

Prompt: Given the compound `O=c1oc(Cl)c(Cl)c2ccccc12` , write its reported fluorescence ratio (interference).
Completion: 1

Prompt: Given the compound `Cc1ccc(S(=O)(=O)N[C@@H](Cc2ccccc2)C(=O)CCl)cc1` , write its reported fluorescence ratio (interference).
Completion: 1

Prompt: Given the compound `CC(C)(C)[C@]1(O)CCN2C[C@H]3c4ccccc4CCc4cccc(c43)[C@@H]2C1` , write its reported fluorescence ratio (interference).
Completion: 1

Prompt: Given the compound C#CCN1C(C)=C(C(=O)OC)C(c2cccc([N+](=O)[O-])c2)C(C(=O)OCC)=C1C (configuration not stated) , write its reported fluorescence ratio (interference).
Completion: 0.9

Prompt: Given the compound `C1CCC(N=C(NC23CC4CC(CC(C4)C2)C3)N2CCOCC2)CC1` , write its reported fluorescence ratio (interference).
Completion: 1

Prompt: Given the compound `Nc1ccc2c3c(cccc13)C(=O)NC2=O` , write its reported fluorescence ratio (interference).
Completion: 1

Prompt: Given the compound `CCCc1c(OCCCOc2ccc(OCC(=O)O)cc2)ccc(C(C)=O)c1O` , write its reported fluorescence ratio (interference).
Completion: 1

Prompt: Given the compound `O=c1c2ccccc2nc2n1CCc1c-2[nH]c2ccccc12` , write its reported fluorescence ratio (interference).
Completion: 1

----------
Exercise: for every item that follows, state its recorded viability.
experiment: drug combination growth inhibition, ovarian cancer – cell-based, oncology-focused library, rucaparib conditional, profiling panel (AID 1508598); details: patient-derived ovarian cancer cells, CellTiter-Glo viability, 144 h; at 0.000305 µM; OCI-P5x cells; with rucaparib 20 µM; stronger effect = lower value; 100% = cells with rucaparib alone
Active and inactive are the calls of the source.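 Rule for the calls: active = normalized viability below 100% at a tested concentration; inactive = the rest.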

Prompt: Given the molecule `CC(=O)Nc1nc(C)c(-c2ccc(Cl)c(S(=O)(=O)NCCO)c2)s1` , write its reported viability.
Completion: 110% (inactive)

Prompt: Given the molecule `CCC(CC)CC1(C(=O)Nc2ccccc2SC(=O)C(C)C)CCCCC1` , write its reported viability.
Completion: 92.5% (active)

Prompt: Given the molecule `C=CC(=O)Nc1cccc(Nc2nc(Nc3ccc(NC4CN(CCF)C4)cc3OC)ncc2C(F)(F)F)c1` , write its reported viability.
Completion: 98.4% (active)

Prompt: Given the molecule `Cc1cc(N2CCOCC2)cc2[nH]c(-c3c(NC[C@@H](O)c4cccc(Cl)c4)cc[nH]c3=O)nc12` , write its reported viability.
Completion: 135% (inactive)

Prompt: Given the molecule `CN[C@H]1CN(c2ccc3c(=O)c(C(=O)O)cn(-c4nccs4)c3n2)C[C@@H]1OC` , write its reported viability.
Completion: 98.3% (active)

Prompt: Given the molecule `CC(C)(C)Cn1c(N)nc2ccc(-c3[nH]c(C(C)(C)C)nc3-c3ccc(F)cc3)nc21` , write its reported viability.
Completion: 99.8% (active)

Prompt: Given the molecule `CC(C)(C)c1cc(NC(=O)Nc2ccc(-c3cn4c(n3)sc3cc(OCCN5CCOCC5)ccc34)cc2)no1` , write its reported viability.
Completion: 87.1% (active)

Prompt: Given the molecule `O=C(Nc1cccnc1)N1CCC(Cc2cccc(Oc3ccc(C(F)(F)F)cn3)c2)CC1` , write its reported viability.
Completion: 110% (inactive)

Prompt: Given the molecule `COc1cc(Nc2ncc(F)c(Nc3ccc4c(n3)NC(=O)C(C)(C)O4)n2)cc(OC)c1OC` , write its reported viability.
Completion: 83% (active)

Prompt: Given the molecule `C=CCn1c(=O)c2cnc(Nc3ccc(N4CCN(C)CC4)cc3)nc2n1-c1cccc(C(C)(C)O)n1` , write its reported viability.
Completion: 88.3% (active)

Prompt: Given the molecule `CN1CCN(CCOc2cc(OC3CCOCC3)c3c(Nc4c(Cl)ccc5c4OCO5)ncnc3c2)CC1` , write its reported viability.
Completion: 98.8% (active)

Prompt: Given the molecule `CC[C@H](Nc1ncnc2nc[nH]c12)c1nc2cccc(F)c2c(=O)n1-c1ccccc1` , write its reported viability.
Completion: 96.5% (active)

----------
test: growth inhibition of DIPG cells – cell-based, MIPE5.0 library, qHTS (AID 1347068); settings: SU-DIPG-XXV viability
Records with an inconclusive call do not appear. Activity calls are given as the source filed them. No cut-off is given here; in the data, nearly all actives have IC50 up to about 30 µM.
Observed Property: IC50

compound=FC(F)(F)c1ccc(CNc2ccc(Cc3c[nH]c4ncccc34)cn2)cc1 endpoint_result=inactive
compound=COc1ccc2c(Oc3ccc(NC(=O)c4c(C)n(CC(C)(C)O)n(-c5ccccc5)c4=O)cc3F)ccnc2c1 endpoint_result=inactive
compound="CC1COC2(CCN(c3nc(=O)c4cc(C(F)(F)F)cc([N+](=O)[O-])c4s3)CC2)O1 (stereo not drawn)" endpoint_result=inactive

----------
assay: drug combination growth inhibition, ovarian cancer – cell-based, oncology-focused library, rucaparib conditional, profiling panel (AID 1508598); settings: patient-derived ovarian cancer cells, CellTiter-Glo viability, 144 h; at 0.0195 µM; OCI-P5x cells; without rucaparib
Activity calls are given as the source filed them.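 Rule for the calls: active = normalized viability below 100% at a tested concentration; inactive = the rest.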
API: response.call in active, inactive

Prompt: Could you kindly confirm the outcome this assay logged for `Cc1ccc2c(=O)c3cccc(CC(=O)O)c3oc2c1C` ?
Completion: inactive

Prompt: Could you kindly confirm the outcome this assay logged for `CCNC(=O)c1noc(-c2cc(C(C)C)c(O)cc2O)c1-c1ccc(CN2CCOCC2)cc1` ?
Completion: active

Prompt: Could you kindly confirm the outcome this assay logged for `NC1(c2ccc(-c3nc4ccn5c(=O)[nH]nc5c4cc3-c3ccccc3)cc2)CCC1` ?
Completion: inactive

Prompt: Could you kindly confirm the outcome this assay logged for `CCC[C@H](Nc1nc(-c2ccc(NC(=O)NCC)c(OC)c2)ncc1C)c1cccnc1` ?
Completion: active

Prompt: Could you kindly confirm the outcome this assay logged for `Nc1cc(C(F)(F)F)c(-c2cc(N3CCOCC3)nc(N3CCOCC3)n2)cn1` ?
Completion: inactive

Prompt: Could you kindly confirm the outcome this assay logged for `CN(C)C/C=C/C(=O)Nc1cc2c(Nc3ccc(F)c(Cl)c3)ncnc2cc1O[C@H]1CCOC1` ?
Completion: active

----------
assay: drug combination growth inhibition, ovarian cancer – cell-based, oncology-focused library, rucaparib conditional, profiling panel (AID 1508598); details: patient-derived ovarian cancer cells, CellTiter-Glo viability, 144 h; at 0.00122 µM; OCI-C5x cells; without rucaparib; stronger effect = lower value
Observed Property: viability (%)
Numbers only here, please. The scale is %.

Prompt: Given the compound `CC(C)[C@H](C(=O)Nc1ccc(C(=O)NO)cc1)c1ccccc1` , write its reported viability.
Completion: 139

Prompt: Given the compound `CN(C)Cc1c(C(=O)NCCOc2ccc(C(=O)NO)cc2)oc2ccccc12` , write its reported viability.
Completion: 123

Prompt: Given the compound `NC(=O)c1ccc(I)c([N+](=O)[O-])c1` , write its reported viability.
Completion: 116

Prompt: Given the compound `O=C(Nc1cn[nH]c1-c1nc2ccc(CN3CCOCC3)cc2[nH]1)NC1CC1` , write its reported viability.
Completion: 132

Prompt: Given the compound Nc1cccc2c1C(=O)N(C1CCC(=O)NC1=O)C2=O (stereo not given) , write its reported viability.
Completion: 124

----------
assay: viability loss with induced miR-34 in A549 – imaging, A549 dox-inducible miR-34, nuclei and caspase counts, primary screen (AID 1347080); settings: A549 miR-34 inducible, Hoechst nuclei count, 48 h; measured here: total cells without miR-34 induction
Exercise: for every item that follows, state its recorded cell count.
Form field (numeric): enter value without unit.

Prompt: Given the molecule `c1cn2cc(-c3ccc4cn[nH]c4c3)nc(Nc3ccc(N4CCOCC4)cc3)c2n1` , write its reported cell count.
Completion: 5880

Prompt: Given the molecule `CCCCC[C@@H](O)/C=C/[C@H]1C(=O)C[C@H](O)[C@@H]1C/C=C\CCCC(=O)O` , write its reported cell count.
Completion: 6040

Prompt: Given the molecule CN(CCOc1ccc(CC(Nc2ccccc2C(=O)c2ccccc2)C(=O)O)cc1)c1ccccn1 (stereo not drawn) , write its reported cell count.
Completion: 7780

----------
test: viability loss with induced miR-34 in A549 – imaging, A549 dox-inducible miR-34, nuclei and caspase counts, primary screen (AID 1347080); conditions: A549 miR-34 inducible, Hoechst nuclei count, 48 h; measured here: total cells without miR-34 induction
Classify: T when cell count is strictly less than 8000; F when cell count is not.

Prompt: Item `COC(=O)CCCCCC[C@@H]1[C@@H](CC[C@@H](O)CSc2ccccc2F)[C@H](O)C[C@@H]1O` : cell count beneath 8000, strictly?
Completion: T

Prompt: Item `CC/C=C\C/C=C\C/C=C\C/C=C\C/C=C\CCCC(=O)O[C@H](COCCCCCCCCCCCCCCCC)COP(=O)([O-])OCC[N+](C)(C)C` : cell count beneath 8000, strictly?
Completion: T

Prompt: Item O=c1nc2ccccc2c2n1CC(CN1CCN(c3ccccc3)CC1)N2 (stereo not given) : cell count beneath 8000, strictly?
Completion: F

Prompt: Item CCCCCCC(Sc1nc(Cl)cc(NCc2ccc(-c3ccccc3)cc2)n1)C(=O)O (stereo not given) : cell count beneath 8000, strictly?
Completion: T

Prompt: Item C[C@@H]1O[C@@]2(CS1)CN1CCC2CC1 (racemic) : cell count beneath 8000, strictly?
Completion: F

Prompt: Item `CCc1cccc(CC)c1NC(=O)N1Cc2[nH]nc(NC(=O)c3ccc(N4CCN(C)CC4)cc3)c2C1` : cell count beneath 8000, strictly?
Completion: T

Prompt: Item `O=[N+]([O-])c1cccc2c[nH]nc12` : cell count beneath 8000, strictly?
Completion: F

Prompt: Item `CCCCCCCCCCCCCCCCCCCCCCCCC(=O)OC` : cell count beneath 8000, strictly?
Completion: T

Prompt: Item `COc1cc2ncnc(Oc3cccc(NC(=O)Nc4cc(C(C)(C)C(F)(F)F)on4)c3)c2cc1OC` : cell count beneath 8000, strictly?
Completion: T

Prompt: Item `NS(=O)(=O)c1cccc2c1c([N+](=O)[O-])cc1[nH]c(=O)c(=O)[nH]c12` : cell count beneath 8000, strictly?
Completion: F

Prompt: Item CC1(C)CC(=O)c2c(C(F)(F)F)nn(-c3ccc(C(N)=O)c(NC4CCC(O)CC4)c3)c2C1 (stereo not given) : cell count beneath 8000, strictly?
Completion: T

Prompt: Item `CC(=O)OC1=C(C)NC(C)=C(OC(C)=O)C1c1ccccc1[N+](=O)[O-]` : cell count beneath 8000, strictly?
Completion: T

Prompt: Item `Nc1nc(OCc2ccccc2)c2[nH]cnc2n1` : cell count beneath 8000, strictly?
Completion: F

Prompt: Item `CCCCCCCC(=O)CC[C@@H]1[C@@H](C/C=C\CCCC(=O)OC(C)C)[C@@H](O)C[C@H]1O` : cell count beneath 8000, strictly?
Completion: T

Prompt: Item `CCCCC/C=C\C/C=C\C/C=C\C/C=C\CCCC(=O)S[C@H](COCCCCCCCCCCCCCCCC)COP(=O)([O-])OCC[N+](C)(C)C` : cell count beneath 8000, strictly?
Completion: T

Prompt: Item `NC(=Nc1ccc(F)cc1)NO` : cell count beneath 8000, strictly?
Completion: T

Prompt: Item `N[C@@H](Cn1ccc(=O)n(Cc2ccccc2C(=O)O)c1=O)C(=O)O` : cell count beneath 8000, strictly?
Completion: F

Prompt: Item `Nc1ncnc2c1nc(Br)n2[C@@H]1O[C@@H]2COP(=O)(O)O[C@H]2[C@H]1O` : cell count beneath 8000, strictly?
Completion: F

Prompt: Item `C[C@@H](NCc1cc(Br)cc2[nH]c(=O)c(=O)[nH]c12)P(=O)(O)O` : cell count beneath 8000, strictly?
Completion: F

Prompt: Item `CCCCCCCC/C=C\CCCCCCCC(=O)NCC(=O)O` : cell count beneath 8000, strictly?
Completion: T

Prompt: Item `COc1cc2ncnc(Nc3ccc(Oc4ccccc4)cc3)c2cc1OC` : cell count beneath 8000, strictly?
Completion: F

Prompt: Item `CNC(=O)c1cc(Oc2ccc(NC(=O)Nc3cc(C(C)(C)C)nn3-c3ccc4ncccc4c3)c(F)c2)ccn1` : cell count beneath 8000, strictly?
Completion: T

Prompt: Item `CCCCC[C@H](O)/C=C/[C@@H]1[C@@H](CCCCCCCO)[C@@H](O)C[C@H]1O` : cell count beneath 8000, strictly?
Completion: T
